Test: refractive index (Na D-line) (dimensionless); xn = mol fraction of the nth substance listed
Settings: 318.15 K; 100.5 kPa; Liquid; Standard Abbe refractometry; x1 = 0.2
ENDPOINT LABEL: refractive index

COMPOUND	ENDPOINT LABEL	REPORTED MEASUREMENT
CCCCCCCC(=O)OCC [ethyl octanoate] + CCO	refractive index	1.37654
CCOC(=O)c1ccccc1 [ethyl benzoate] + CCO	refractive index	1.40679
CCCCCC(=O)OCC [ethyl hexanoate] + CCO	refractive index	1.3696
CC(=O)OCCC(C)C [3-methylbutyl ethanoate] + CCO	refractive index	1.36558
CCCC(=O)OCCC(C)C [3-methylbutyl butanoate] + CCO	refractive index	1.3719
CCOC(=O)Cc1ccccc1 [ethyl phenylacetate] + CCO	refractive index	1.40653
